Tested on: OVCAR-4 ovarian
Experiment: NCI tumour cell line growth inhibition, 48 h
Consider the following compounds and their measured TGI readings.
observation_type: TGI (µM)

- COc1cc(C2C(Cl)C(=O)N2NC(=O)c2ccc(N)cc2)cc(Br)c1O (centres undefined): 35.1
- Cn1c(/C=C/[N+](=O)[O-])cc2ccccc21: 92.1
- C=CCOC(=O)C1=C(CCC[C@@H](C)O[Si](C)(C)C(C)(C)C)N=C(N)N2[C@H](CCO)CC[C@@H]12: 23.2
- CCCCCCCCC(=O)OCC(CS[As](C)C)OC(=O)CCCCCCCC (centres undefined): 38.4
- Clc1ccc(-c2cc(-c3ccccc3)nc(NCCNc3ccnc4cc(Cl)ccc34)n2)cc1: 3.83
- Clc1cc(Cl)cc(N2N=C(c3cccc(Nc4ccncc4)c3)CC2c2ccc3c(c2)OCO3)c1 (centres undefined): 3.18
- COc1ccc(Nc2cc(C)nc(NCCCNc3ccnc4cc(Cl)ccc34)n2)cc1: 4.86
- CCOC(=O)c1[nH]cc(C)c1-c1ccc2c(-c3ccccc3)nc3ccccc3n12: 16.1

====

Tested on: HCT-15 colon
Experiment: NCI tumour cell line growth inhibition, 48 h; in the data active = GI50 below about 0.43 µM; inactive = the rest
Labels: label 1 for active, label 0 for inactive

- CN1CCN(Cc2ccc(NC(=O)c3cccc(C#Cc4cnc(N)c5ncccc45)c3F)cc2C(F)(F)F)CC1: label 0
- COc1ccc2nc3cc(Cl)ccc3c(Sc3ccc([N+](=O)[O-])cc3)c2c1: label 0
- COc1ccc(C2=NN(C(=O)c3cc(OC)c(OC)c(OC)c3)C(c3ccc(N(C)C)cc3)C2)cc1 (stereo not drawn): label 1
- Cn1c(/C=C/[N+](=O)[O-])cc2ccccc21: label 0
- Clc1ccc(OCc2nnc3n2N=C(c2ccc(Cl)cc2Cl)CS3)cc1: label 0
- Cc1ccc(NC(=O)c2sc3nc4c(cc3c2N)C(=O)CCC4)cc1C: label 0
- O=C(Nc1n[nH]c2nnc(-c3cccnc3)cc12)C1CC1: label 0
- Oc1cc2ccccc2c(-c2c(O)c(O)cc3ccccc23)c1O: label 1
- COc1cc(C(=O)N/N=C/c2ccc(N(C)C)cc2)cc(OC)c1OC: label 0
- OCc1ccc(N2CCc3ccccc3C2)cc1Cl: label 0
- CCCCCCCCCCCCCCCCC(=O)O.CCCCCCCCCCCCCCCCCC(=O)O.CCCCCCCCCCCCCCCCCC(=O)O.CCCCCCCCCCCCCCCCCC(=O)O.CCCCCCCCCCCCCCCCCC(=O)O.CO[CH-]OC12COC1CC(O)C1(C)C(O)C(OC(C)O)C3=C(C)C(OC(=O)C(O)C([NH-])c4ccccc4)CC(O)(C(OC(=O)c4ccccc4)C21)C3(C)C.[Cu+].[Zn].[Zn].[Zn].[Zn].[Zn] (stereo not drawn): label 1
- COc1cc([C@@H]2C[C@H]2c2cc(SC)n[nH]2)cc(OC)c1OC: label 0
- Cn1c(=O)c(Oc2ccc(F)cc2F)cc2cnc(NC3CCS(=O)(=O)CC3)nc21: label 0
- CCOc1cccc(-c2nc(N)nc(Nc3ccccc3SSc3ccccc3Nc3nc(N)nc(-c4cccc(OCC)c4)n3)n2)c1: label 0
- c1ccc2cc(C[n+]3ccn(CCCCCCCCCCn4cc[n+](Cc5ccc6ccccc6c5)c4)c3)ccc2c1: label 0
- O=C(Nc1ccccc1)c1cc(S(=O)(=O)Nc2nc3ccccc3o2)c(SCc2ccccc2)cc1Cl: label 0
- COc1ccc(-n2ccnc2-c2cc(OC)c(OC)c(OC)c2)cc1: label 0
- CC(=O)OC1CC2C3CCC4C[C@@H](NC(=O)C=C(C)C)CC[C@]4(C)C3CC[C@]2(C)[C@H]1C(C)N(C)C (stereo partly drawn): label 0

====

Items are presented alongside their recorded GI50.
Test system: OVCAR-8 ovarian
Test: NCI tumour cell line growth inhibition, 48 h
observation_type: GI50

- CC(=O)N1N=C2/C(=C/c3ccc(Cl)cc3)CC(C)CC2C1c1ccc(Cl)cc1 (centres undefined): 24.9 µM
- Oc1cc2ccccc2c(-c2c(O)c(O)cc3ccccc23)c1O: 2.16 µM
- COc1ccc(-n2ccnc2-c2cc(OC)c(OC)c(OC)c2)cc1: 4.71 µM
- COc1ccc(Nc2cc(C)nc(NCCCNc3ccnc4cc(Cl)ccc34)n2)cc1: 2.42 µM

====

Tested on: HOP-62 NSCLC
Experiment: NCI tumour cell line growth inhibition, 48 h
Each item that follows carries a reported GI50.
observation_type: GI50

- COc1cc(/C=C2\C[C@H]3[C@@H]4CC=C5C[C@@H](O)CC[C@]5(C)[C@H]4CC[C@]3(C)[C@H]2O)ccc1OCCCn1ccnc1: 3.45 µM
- COc1cc(C(=O)Nc2cc(OC)c3ccn(C)c3c2)cc2c1C[C@]1(C)CC[C@@H](O)C(C)(C)[C@H]1O2: 0.77 µM
- CN1CCN(Cc2ccc(NC(=O)c3cccc(C#Cc4cnc(N)c5ncccc45)c3F)cc2C(F)(F)F)CC1: 1.74 µM
- CCN1Cc2nc3sc(C)c(C)c3c(=O)n2C=C1C: 16.4 µM
- COc1ccc(/C=C2\C=C(c3ccccc3)N(CCc3ccccc3)C2=O)cc1OC: 2.72 µM
- CCCCCCCCC(=O)OCC(CS[As](C)C)OC(=O)CCCCCCCC (stereo not drawn): 15.1 µM
- Cn1cc(C2=C(c3cn(C)c4ccccc34)C(=O)NC2=O)c2ccccc21: 1.92 µM
- O=C(Nc1ccc(/C=C/c2ccc(NC(=O)c3cc(S(=O)(=O)O)c4cccnc4c3O)cc2S(=O)(=O)O)c(S(=O)(=O)O)c1)c1cc(S(=O)(=O)O)c2cccnc2c1O: 10.9 µM

====

Test system: A549 NSCLC
Experiment: NCI tumour cell line growth inhibition, 48 h
observation_type: GI50

* CCCCCCCCC(=O)OCC(CS[As](C)C)OC(=O)CCCCCCCC (configuration not stated) | 8.36 µM
* C[C@@H](Oc1ccc(C(=O)NS(=O)(=O)C(C)(C)C)cc1C(F)(F)F)c1ccc(Oc2ccccc2)cn1 | 5.31 µM
* COC1=CC(c2ccc[nH]2)=N/C1=C\c1[nH]c(C)c(C(=O)CCCCC(=O)Oc2ccc3c(c2)CCC2C3CC[C@]3(C)[C@@H](O)CC[C@@H]23)c1C (some centres not stated) | 6.58 µM
* N#C[Se]CCCNS(=O)(=O)C1CC2C=CC1C2 (configuration not stated) | 0.601 µM
* CCCCCCCCCCCCOC1C(CNC(=O)C2OC3OC(C)(C)OC3C2NC(=O)Nc2ccc(CC(=O)NC(Cc3ccccc3)C(=O)O)cc2)OC2OC(C)(C)OC21 (configuration not stated) | > 25 µM
* NC(N)=N/N=C/c1ccc(-c2ccc(-c3cc(Cl)cc(Cl)c3)s2)cc1 | 2.15 µM
* O=C(Nc1n[nH]c2nnc(-c3cccnc3)cc12)C1CC1 | > 20.7 µM
* O=S(=O)(/N=c1/scc(-c2ccccc2)n1-c1ccccc1)c1ccc(N2N=C3c4ccccc4CC3C2c2cccs2)cc1 (configuration not stated) | 57 µM
* CC(=O)OC1CC2C3CCC4C[C@@H](NC(=O)C=C(C)C)CC[C@]4(C)C3CC[C@]2(C)[C@H]1C(C)N(C)C (some centres not stated) | 2.39 µM
* CC(=O)[CH-]C(=O)c1ccccc1.CC(=O)[CH-]C(=O)c1ccccc1.C[C@]12CCC(=O)C=C1CC[C@@H]1C2CC[C@@]2(C)C1CC[C@@H]2[O-].C[C@]12CCC(=O)C=C1CC[C@@H]1C2CC[C@@]2(C)C1CC[C@@H]2[O-].Cl.[Ti+4] (some centres not stated) | 18.4 µM
* O=C(Nc1ccccc1)c1cc(S(=O)(=O)Nc2nc3ccccc3o2)c(SCc2ccccc2)cc1Cl | 21 µM
* COc1ccc2nc3cc(Cl)ccc3c(Sc3ccc([N+](=O)[O-])cc3)c2c1 | > 100 µM
* Cn1cc(C2=C(c3cn(C)c4ccccc34)C(=O)NC2=O)c2ccccc21 | 1.97 µM
* COc1cc(/C=C2\C[C@H]3[C@@H]4CC=C5C[C@@H](O)CC[C@]5(C)[C@H]4CC[C@]3(C)[C@H]2O)ccc1OCCCn1ccnc1 | 1.18 µM
* O=C1c2cccc(NCCN=Cc3ccccc3O)c2C(=O)c2c(NCCN=Cc3ccccc3O)cccc21 | 0.668 µM
* COc1ccc(-n2ccnc2-c2cc(OC)c(OC)c(OC)c2)cc1 | 6.57 µM
* COc1ccc(C2=NN(C(=O)c3cc(OC)c(OC)c(OC)c3)C(c3ccc(N(C)C)cc3)C2)cc1 (configuration not stated) | 1.12 µM

====

// TGI lookup, one value per entry
Tested on: SW-620 colon
Test: NCI tumour cell line growth inhibition, 48 h
observation_type: TGI (µM)

- CC1OC(OC2C(OC3CCC4(C)C(CCC5(C)C4CC=C4C6CC(C)(C)CCC6(C(=O)O)CCC45C)C3(C)CO)OCC(O)C2O)C(O)C(O)C1O (configuration not stated): 55.4
- Cc1ccccc1-n1c2nc(=O)n(C)c(=O)c-2nc2ccccc21: 28.1
- O=Cc1ccc(CCl)cc1: 52.1
- CC1=CC(=O)CC(C)(C)C1/C=C/C(C)=C/C=C/C(C)=C/C=C/C=C(C)/C=C/C=C(C)/C=C/C1=C(C)CC(O)CC1(C)C (configuration not stated): 33.2
- CCOC(=O)C(C(=S)SC)c1nn2c(=O)cc(C)nc2s1 (configuration not stated): 37.2
- O=C(c1ccco1)c1c(C(F)(F)F)n([O-])c2ccc(Cl)cc2[n+]1=O: 1.18
- O=c1oc2ccc(Br)cc2c(=O)n1-c1ccc(I)cc1F: 10.5
- O=C1C=CC(=O)c2c1ccc1c3ccccc3n(Cc3cccc([N+](=O)[O-])c3)c21: 32.4
- CN(C)c1ccc(/C=C/C2=[N+](C)c3ccccc3C2(C)C)cc1: 17.8
- Cc1ccc(S(=O)c2sccc2C=O)cc1 (configuration not stated): 55.9
